# System: JNK1 (Homo sapiens, UniProt P45983)
# Construct: purchased Eurofins Pharma Discovery (KINOMEscan)
# Sequence (P45983 whole entry): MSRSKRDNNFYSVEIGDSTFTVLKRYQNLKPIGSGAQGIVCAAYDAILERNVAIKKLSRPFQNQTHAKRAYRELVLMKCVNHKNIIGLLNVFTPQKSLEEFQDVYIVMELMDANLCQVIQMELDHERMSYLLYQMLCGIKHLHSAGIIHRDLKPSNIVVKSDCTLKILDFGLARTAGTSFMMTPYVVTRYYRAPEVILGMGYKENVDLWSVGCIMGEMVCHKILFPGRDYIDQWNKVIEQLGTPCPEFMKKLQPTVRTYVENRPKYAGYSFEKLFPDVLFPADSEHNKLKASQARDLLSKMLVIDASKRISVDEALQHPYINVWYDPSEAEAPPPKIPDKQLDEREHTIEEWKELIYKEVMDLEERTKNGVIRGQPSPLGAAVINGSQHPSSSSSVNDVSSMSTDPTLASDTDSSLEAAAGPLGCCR
# Run Description: KINOMEscan Kd determination, JNK1
# Stated Conditions: duplicate, mean, N.B. = no binding at < 30 μM
pKd: −log10 of the molar value.
Readout: pKd

Substance Smiles	Modifier Sign	Result
ON=C1c2ccccc2-c2nc3c(Br)cc(C(F)(F)F)cc3nc21	<	4.52
ON=C1c2ccccc2-c2nc3cc(F)ccc3nc21	=	6.55
O/N=C1/c2ccccc2-c2nc3c(Cl)cc(C(F)(F)F)cc3nc21	<	4.52
Cc1cc(Br)cc2nc3c(nc12)-c1ccccc1C3=NO	<	4.52
ON=C1c2ccccc2-c2nc3c(F)cc(F)cc3nc21	=	6.04
ON=C1c2ccccc2-c2nc3c(C(F)(F)F)cc(C(F)(F)F)cc3nc21	<	4.52
COC(=O)c1ccc2nc3c(nc2c1)C(=NO)c1ccccc1-3	=	6.04
ON=C1c2ccccc2-c2nc3c(Cl)cccc3nc21	=	6.77
ON=C1c2ccccc2-c2nc3c(CN4CCOCC4)cccc3nc21	=	5.96
CC(C)(C)c1ccc2nc3c(nc2c1)-c1ccccc1/C3=N/O	=	5.51
